target: NO synthase (Rattus norvegicus, UniProt P29476); construct: the supernatant was then removed by decantation and frozen in portions at −80° C; from tissue; host or cells: rat cerebellum, 20,000 g supernatant of homogenate; test: HTS-NOS assay (NOS assay): conversion of radioactive arginine, cation-exchanger filter plate; type: biochemical; conditions: read-out: HTS-NOS assay: % inhibition (10 μM)
Can you tell me inhibition at 10 µM for the items I'm about to list?
Express your answer in %, writing the number without its unit.

Prompt: Endpoint output: inhibition at 10 µM of CC(=O)N(c1c(C)cccc1C)c1c(-c2sccc2Br)nc2cc(C)cc(C)n12 . Value?
Response: 74

Prompt: Endpoint output: inhibition at 10 µM of CC(=O)N(c1c(-c2ccc(C(=O)O)s2)nc2ccccn12)C(C)(C)CC(C)(C)C . Value?
Response: 50

Prompt: Endpoint output: inhibition at 10 µM of CC(=O)N(c1c(C)nc2c(Br)cc(Br)cn12)C(C)(C)C . Value?
Response: 62

Prompt: Endpoint output: inhibition at 10 µM of COC(=O)CNc1c(C)nc2cc(C)ccn12 . Value?
Response: 50

Prompt: Endpoint output: inhibition at 10 µM of CCCCNc1c(-c2ccccc2OC)nc2ccc(C)cn12 . Value?
Response: 52

Prompt: Endpoint output: inhibition at 10 µM of Cc1cc(C)n2c(NC(C)(C)CC(C)(C)C)c(-c3cccnc3)nc2c1 . Value?
Response: 61

Prompt: Endpoint output: inhibition at 10 µM of Cc1ccn2c(NC(C)(C)CC(C)(C)C)c(-c3ccc(C4OCCO4)o3)nc2c1 . Value?
Response: 57

Prompt: Endpoint output: inhibition at 10 µM of CC(=O)N(c1c(-c2cccc(Cl)c2Cl)nc2ccccn12)C1CCCCC1 . Value?
Response: 55

Prompt: Endpoint output: inhibition at 10 µM of CC(=O)N(c1c(-c2ccco2)nc2cc(C)cc(C)n12)C(C)(C)C . Value?
Response: 66

Prompt: Endpoint output: inhibition at 10 µM of Cc1ccn2c(NC3CCCCC3)c(-c3cccs3)nc2c1 . Value?
Response: 60

Prompt: Endpoint output: inhibition at 10 µM of COc1cccc(-c2nc3cc(C)cc(C)n3c2NC(C)(C)CC(C)(C)C)c1OC . Value?
Response: 73

Prompt: Endpoint output: inhibition at 10 µM of Cc1cc(C)n2c(NC(C)(C)CC(C)(C)C)c(-c3ccc[nH]3)nc2c1 . Value?
Response: 69

Prompt: Endpoint output: inhibition at 10 µM of CCCCNc1c(-c2cccc(OC)c2OC)nc2cc(C)ccn12 . Value?
Response: 62

Prompt: Endpoint output: inhibition at 10 µM of Cc1cccc(C)c1Nc1c(-c2cccc(Cl)c2Cl)nc2c(C)cccn12 . Value?
Response: 55

Prompt: Endpoint output: inhibition at 10 µM of Cc1ccn2c(NC3CCCCC3)c(-c3ccccc3Br)nc2c1 . Value?
Response: 50

Prompt: Endpoint output: inhibition at 10 µM of Cc1cc(C)n2c(NC(C)(C)C)c(-c3ccc([N+](=O)[O-])o3)nc2c1 . Value?
Response: 59

Prompt: Endpoint output: inhibition at 10 µM of COc1cccc(-c2nc3c(C)cccn3c2NC(C)(C)CC(C)(C)C)c1OC . Value?
Response: 52

Prompt: Endpoint output: inhibition at 10 µM of Cc1ccc2nc(-c3cccc(Cl)c3Cl)c(NC(C)(C)CC(C)(C)C)n2c1 . Value?
Response: 52

Reference source: patent US20040023972A1
